# targetUnderTest: human fibroblasts derived MMP-1 (type I collagenase) (Homo sapiens, UniProt P03956)
# Construct: human fibroblasts derived MMP-1 (Yagai Co. Ltd.) as enzyme; purchased Yagai Co. Ltd; host or cells: human fibroblasts
# Sequence (P03956 100-469): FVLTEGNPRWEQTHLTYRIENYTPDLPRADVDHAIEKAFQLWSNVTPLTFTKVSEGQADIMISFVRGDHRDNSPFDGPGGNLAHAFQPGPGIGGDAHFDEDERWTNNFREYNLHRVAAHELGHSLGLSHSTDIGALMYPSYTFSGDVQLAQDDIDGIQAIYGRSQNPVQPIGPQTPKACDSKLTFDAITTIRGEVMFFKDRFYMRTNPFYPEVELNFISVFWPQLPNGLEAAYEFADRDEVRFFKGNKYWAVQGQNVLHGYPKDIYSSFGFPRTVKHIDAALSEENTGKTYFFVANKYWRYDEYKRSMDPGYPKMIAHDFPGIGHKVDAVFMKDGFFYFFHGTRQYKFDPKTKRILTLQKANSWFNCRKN
# assayInfo: MMP-1 (type I collagenase) inhibitory activities, fluorogenic substrate enzyme assay
# Assay type: biochemical
# assayConditions: at 10^−5M; NE means no effect; read-out: MMP-1 inhibition percent
# Source text: Examination 1: MMP-1 (type I collagenase) inhibitory activities. Inhibitory activities of MMP-1 (type I collagenase) activities were estimated by enzyme assay using human fibroblasts derived MMP-1 (Yagai Co. Ltd.) as enzyme, and MOCAc-Pro-Leu-Gly-Leu-A2pr(Dnp)-Ala-Arg-NH2 (Peptide Research Center, 3163-v) as substrate. […]
propertyMeasured: inhibition at 10 µM (%)
Value expressed in %; do not type the unit.

Below: 5 compounds and their reported inhibition at 10 µM.
COc1ccc(S(=O)(=O)N2CC[C@H](NC(C)=O)C[C@H]2C(=O)NO)cc1
37.3
COc1ccc(-c2ccc(S(=O)(=O)N3CC[C@@H](NC(=O)c4c[nH]c5ccccc45)C[C@@H]3C(=O)NO)cc2)cc1
12.9
CC(C)CCC(=O)N[C@@H]1CCN(S(=O)(=O)c2ccccc2-c2ccc(O)cc2)[C@@H](C(=O)NO)C1
29.5
COc1ccc(S(=O)(=O)N2CC[C@H](NC(=O)CCC(C)C)C[C@H]2C(=O)NO)cc1
0
COc1ccc(OCCCCC(=O)N[C@H]2CCN(S(=O)(=O)c3ccc(OC)cc3)[C@H](C(=O)NO)C2)cc1
31.1

What inhibition at 10 µM value was documented for this compound, O=C(N[C@@H]1CCN(S(=O)(=O)c2ccc(-c3ccc(Cl)cc3)cc2)[C@@H](C(=O)O)C1)c1cccc[n+]1[O-] ?
14

Next entry: COc1ccc(S(=O)(=O)N2CC[C@@H](NC(=O)CCC(C)C)C[C@@H]2C(=O)NO)cc1
45.3

The reported numbers originate from patent US20010056184A1.
